Below, each of the compounds is paired with its reported melting point value.

compound | endpoint | observed_measurement
O=S1(=O)NCc2ccccc2N1 | melting point | 178 to 180 °C

Would you mind telling me what melting point value was observed for Cc1nc(-c2ncn3c2[C@@H]2CCCN2C(=O)c2c(Cl)cccc2-3)no1 ?
205 to 206 °C

Would you mind telling me what melting point value was observed for Nc1ccc(C2(C(=O)O)CC2C(=O)O)cc1 (configuration not stated) ?
154 to 155 °C

* * *

Below, each of the compounds is paired with its reported melting point value.

Illustrative cases are given below, each with its answer.
compound | endpoint | observed_measurement
N#CC1=C(COCc2ccccc2)Nc2n[nH]cc2C1c1ccccc1Cl (stereo not given) | melting point | 165 to 166 °C
CCCc1nc2ccnn2c(OC)c1Cc1ccc(-c2ccccc2C#N)cc1 | melting point | 110 °C
O=C(c1cccs1)c1cnn2c(Cl)ccnc12 | melting point | 148 to 150 °C

Would you mind telling me what melting point value was observed for COC(=O)C1=C(C)NC2=C(C1c1cccc([N+](=O)[O-])c1)S(=O)(=O)CCC2 (stereo not given) ?
236 to 238 °C

Would you mind telling me what melting point value was observed for Cc1nc(OC(C)C(=O)NC(C)(C#N)C(C)(C)C)c(Cl)c(C(F)(F)F)n1 (stereo not given) ?
137 to 139 °C
